methodNotes: qHTS assay for small molecule disruptors of mitochondrial membrane potential screened against the NCATS CANVASS Library (AID 1347389); note: nearly all actives have a fitted effect of over 60% in size
conditionSet: HepG2 mitochondrial membrane potential, m-MPI red/green ratio, 1.5 h; series mostly up to 46.1 µM
Inconclusive results are not listed. Activity calls are given as the source filed them. Calls come from the whole dose curve; as a rule, active = well fitted inhibition curve with a large enough effect; inconclusive = small, poorly fitted or top-dose-only effect; inactive = flat fitted curve, though single readings scatter.
Possible outcomes: 1 (yes) for active, 0 (no) for inactive

| molecule | cat |
| --- | --- |
| Cc1cc(O)cc2oc(C[C@H](C)O)cc(=O)c12 | 0 (no) |
| O=C(O)CC1OCc2c(O)cccc21 (stereo unspecified) | 0 (no) |
| C=C1C[C@@]23C=CC(=O)[C@@](C)(CCC(=O)Nc4c(OC5O[C@H](CO)[C@@H](O)[C@H](O)[C@H]5O)ccc(C(=O)O)c4O)C2C[C@@H]1CC3 (stereo partly specified) | 0 (no) |
| O=C(OC1Cc2c(O)cc(O)cc2OC1c1cc(O)c(O)c(O)c1)c1cc(O)c(O)c(O)c1 (stereo unspecified) | 0 (no) |
| CN1CCc2cc3c(c4c2[C@H]1[C@@H](O)c1ccccc1-4)OCO3 | 1 (yes) |
| CC1(C)C=Cc2c(ccc3c2OC[C@@H](c2ccc(O)cc2O)C3)O1 | 1 (yes) |
